# Target Of Assay: T1, SARS-CoV-2 WA-1 RBD (SARS-CoV-2, UniProt P0DTC2 331-527)
# T1 construct: source: Expi293F, purified (Ni-NTA)
# Experiment Description: BLI
# Protocol Conditions: both partners purified
Measured koff of individual entries

| Binder | koff (s⁻¹) |
| --- | --- |
| WRAIR-5004 (antibody, V domains shown, also called CoV_5004; source: Expi293F, transfected, purified (Protein A magnetic beads)) VH: QVQLVQSGAEIKQPGASVKLSCKASGYTFTTYYIHWVRQAPGQGLEWIGLISPYNGNRGYAQNFQGRVTITTDTSTSTGYMELSSLRSEDTAVYYCTRERVVAAAGYFDYWGQGVLVTVSS VL: SYELTQPPSVSVSPGQTARITCGGDNIGSKNVQWYQQKPAQAPVLVIYDDSERPSGIPERFSGSNSGNTATLTISGVEAGDEAGYSCQVWDSSPDHYIFGAGTRLTVLG | 0.000154 |
| WRAIR-5005 (antibody, V domains shown, also called CoV_5005; source: Expi293F, transfected, purified (Protein A magnetic beads)) VH: QVQLQESGPGLVKPSETLSLTCAVSGSSVNSGYGWTWLRQPPGKGLEWIGYIGGGSGSTIYNPSLKSRLTISKDTSKNQFSLKLSSVTAADTAVYYCASLDYGTTYSWFDVWGPGVLVTVSS VL: SYELTQPRSVSVSPGQMARITCGGDNIGSKSVQWYQHKPPQAPVLVIYADSERPSGIPERFSGSNSGNTATLTISGVEAGDEADYYCQVWDSSSDVLFGGGTRLTVLG | 0.000238 |
| WRAIR-5001 (antibody, V domains shown, also called CoV_5001; source: Expi293F, transfected, purified (Protein A magnetic beads)) VH: QVQLVQSGAEVKKPGASVKLSCKASGYTFTSYSINWVRQAPGQGLEWMGWVNPSNGVTVYAQKFQGRVTMTRDTSTSTAYMELSSLRFEDTAVYYCARERDQLVVYFDHWGQGALVTVSS VL: SYELTQPRSVSVSPGQTARITCGGDNIASKNVHWYQQKLAQAPVLVIYYDSDRPSGIPERFSGSNSGNTATLTISGVEAGDEADYYCQVWDSYSGHHVLFGGGTRLTVLG | 0.000119 |
| WRAIR-5021 (antibody, V domains shown, also called CoV_5021; source: Expi293F, transfected, purified (Protein A magnetic beads)) VH: QVQLQESGPGLVKPSETLSLTCAVSGYSISSGYYWGWIRQPPGKGLEYIGYFSGTTGSTYYNPSLKSRVTISKDTSKNQFSLKLNSVTAADTAVYYCARQPPRFDVWGPGVLVTVST VL: DIQMTQSPSSLSASVGDTVTITCRASQGISNFLNWYQQKPGKAPKLLIYDASRLESGVPSRFSGSGSGTEFTLTISSLQPEDFATYHCLQYDSDPFTFGPGTKLDIKR | 0.000353 |
| WRAIR-5020 (antibody, V domains shown, also called CoV_5020; source: Expi293F, transfected, purified (Protein A magnetic beads)) VH: QVQLQESGPGLVKPSETLSLTCAVSGASISSYWWGWIRQPPGKGLEWIGRISGSSGSTSYNPSLKSRVTISTDTSKNQFSLKLSSVTAADTAVYYCASRITIFGLLRSYWGQGVLVTVSS VL: EIVMTQSPATLSLSPRERATLSCRASQSVSSNLAWYQQKPGQAPRLLIYYASNRATGIPDRFSGSGSGTDFTLTISSLEPEDVGLYYCQQESNWPWTFGQGTKVEIKR | 0.00273 |
| WRAIR-5011 (antibody, V domains shown, also called CoV_5011; source: Expi293F, transfected, purified (Protein A magnetic beads)) V domain 1: EVQLVQSGAEIKQPGASVKLSCKASGYTFTSYYIHWVRQAPGQGLEWIGLISPYNGNRAYAQNFQGRVTITTDTSTSTVYMELSSLKSEDTAVYYCAGEEYSNYGYFDLWGPGTPITISS V domain 2: SYELTQPPSVSVSPGQTARITCGGDNIGSKNVQWYQQKPAQAPVLVIYDDSERPSGIPERFSGSNSGNTATLTISGVEAGDEADYYCQVWDSSGDHYIFGAGTRLTVLG | 0.000147 |
